assay: protein stability index of a GFP-peptide fusion (GPS, HEK-293T) (PSI 1-6); higher = more stable; details: treatment: DMSO; c terminus: a fixed tail appended;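 further: 24-mer peptide tiles fused after GFP, lentivirally expressed, FACS-sorted into six equal bins by GFP/DsRed ratio, decoded by Illumina sequencing, PSI is the read-weighted mean bin number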
Answer -1 if protein stability index is under 3, and 1 if it is 3 or more.

q: Check if protein stability index >= 3 (inclusive). Item: RIPGAWSCAWSLNIQANNCFSTGL [DCAF4]
a: -1

q: Check if protein stability index >= 3 (inclusive). Item: VTPEAKNLINQMLTINPAKRITAH [CAMK2B]
a: -1

q: Check if protein stability index >= 3 (inclusive). Item: DWFSGHLNFQIEHHLFPTMPRHNY [FADS1]
a: -1

q: Check if protein stability index >= 3 (inclusive). Item: PLPKRVAKVPRPPSTLLPTPEEQG [FOXJ1]
a: 1

q: Check if protein stability index >= 3 (inclusive). Item: ACDNGLNVRGGKPDDITVLLSIVA [PPTC7]
a: -1

q: Check if protein stability index >= 3 (inclusive). Item: SHLPTRSPSFPEAPDSGRSAPYSA [TBX6]
a: 1

q: Check if protein stability index >= 3 (inclusive). Item: DKPVTGPRNKTENGLTPKKKIQVN [ATF6]
a: 1

q: Check if protein stability index >= 3 (inclusive). Item: LAWASYDQTGKEVADRWYSEIKNY [GLIPR2]
a: -1

q: Check if protein stability index >= 3 (inclusive). Item: RQGNPSWKKQQKCDECGKIFSQSS [ZNF396]
a: 1

q: Check if protein stability index >= 3 (inclusive). Item: WPSAKSAGWTLATLGEQGLPHQSH [SCNN1D]
a: 1

q: Check if protein stability index >= 3 (inclusive). Item: CEQCGKCKCGECTAPRTLPSCLAC [SPRY1]
a: 1

q: Check if protein stability index >= 3 (inclusive). Item: PRGKPPLNTRSQAPLLRWVLTLSF [HMOX1]
a: -1

q: Check if protein stability index >= 3 (inclusive). Item: EFMLLPANQLIDIISSDELNVRSE [KLHL20]
a: 1

q: Check if protein stability index >= 3 (inclusive). Item: KKIRQVIRKYNYVAMDTEFPGVVA [CNOT7]
a: -1

q: Check if protein stability index >= 3 (inclusive). Item: KDLFEEKIKKSPLTICYPEYAGSN [GNAI1]
a: 1

q: Check if protein stability index >= 3 (inclusive). Item: IRARELQNIYKCIMLKNISQDERL [IQUB]
a: -1

q: Check if protein stability index >= 3 (inclusive). Item: DSAELEPGSQTAVKNSNRYDVEMT [FBXO34]
a: 1

q: Check if protein stability index >= 3 (inclusive). Item: QIKAIRGSNEYTEGPSVVKRPAPR [SPRY1]
a: 1

====

assay: protein stability index of a GFP-peptide fusion (GPS, HEK-293T) (PSI 1-6); higher = more stable; details: treatment: DMSO; c terminus: a fixed tail appended
Answer Criterion not met if protein stability index is under 3, and Criterion met if it is 3 or more.

q: Check if protein stability index >= 3 (inclusive). Item: KEKDSPFKPKLYKGDRGLPLEGSA [RBBP5]
a: Criterion met

q: Check if protein stability index >= 3 (inclusive). Item: EFETLYNEHKSCEEKSVKNTSIRV [CLK3]
a: Criterion met

q: Check if protein stability index >= 3 (inclusive). Item: KLSPKKTWEGFIGGFFATVVFGLL [CDS2]
a: Criterion not met

q: Check if protein stability index >= 3 (inclusive). Item: VEFDVLPAFDALGQLTGGYKPNPQ [OAS1]
a: Criterion not met

q: Check if protein stability index >= 3 (inclusive). Item: IHTGIKPHQCSECGRAFSRKSLLV [ZNF649]
a: Criterion not met

q: Check if protein stability index >= 3 (inclusive). Item: HDFFLQGFTPDRLSSSCCHTVPDF [PLK2]
a: Criterion not met

q: Check if protein stability index >= 3 (inclusive). Item: TELSFLVTTHQPTNLVLPSNGSMH [EDNRA]
a: Criterion not met

q: Check if protein stability index >= 3 (inclusive). Item: LPPEALTAPSGGQWGAEPEGSCYQ [RNF208]
a: Criterion met

q: Check if protein stability index >= 3 (inclusive). Item: PNAFIGSDVVDWLYHNVEGFTDRR [DVL3]
a: Criterion met

q: Check if protein stability index >= 3 (inclusive). Item: AGFTGSGPIQLWQFLLELLSDKSC [ETS2]
a: Criterion not met

q: Check if protein stability index >= 3 (inclusive). Item: LLATRIAVYLMTFLIVTVAWAAHT [TMEM175]
a: Criterion met

q: Check if protein stability index >= 3 (inclusive). Item: FEKLLQLTSQNIEIKLVSDVTADS [PLD5]
a: Criterion not met

q: Check if protein stability index >= 3 (inclusive). Item: KCGNCQTKLHDIDGVPHLILIASR [KMT5A]
a: Criterion not met

q: Check if protein stability index >= 3 (inclusive). Item: LGFARRNWGNGKRPNLETYYERVL [GDAP1]
a: Criterion not met

q: Check if protein stability index >= 3 (inclusive). Item: GKGFRHSSSLAQHQRKHAGEKPFE [ZNF8]
a: Criterion met

q: Check if protein stability index >= 3 (inclusive). Item: SHSRERPYKCVQPDCGKAFVSRYK [PLAGL1]
a: Criterion met

q: Check if protein stability index >= 3 (inclusive). Item: NYRIAGARLMRSNYPPPLSSAALR [C6orf223]
a: Criterion met

q: Check if protein stability index >= 3 (inclusive). Item: LHALKLRSPDASPSRAPPSTQEPQ [GNAS]
a: Criterion met

q: Check if protein stability index >= 3 (inclusive). Item: TEDEKKELENLAAMDLELQKIAEK [CHGB]
a: Criterion met

q: Check if protein stability index >= 3 (inclusive). Item: PYGVYKKQQKDPSEEAAVLQYASL [ATE1]
a: Criterion met

q: Check if protein stability index >= 3 (inclusive). Item: RLKRTRLGLDDFESLKVIGRGAFG [STK38L]
a: Criterion not met

q: Check if protein stability index >= 3 (inclusive). Item: DCGLNLKQRGYFFLDERLYCESHA [PDLIM4]
a: Criterion not met

q: Check if protein stability index >= 3 (inclusive). Item: LANACLPVRTTNKISKQFVAPADV [ZSWIM9]
a: Criterion met

q: Check if protein stability index >= 3 (inclusive). Item: SCEACKAFFKRTIQGNIEYSCPAT [ESRRG]
a: Criterion not met

q: Check if protein stability index >= 3 (inclusive). Item: EEGVVGGLSGGALSPLRAASDPLL [TFE3]
a: Criterion met

q: Check if protein stability index >= 3 (inclusive). Item: LLLENGAGINTHSNEFKESALTLA [ANKRD17]
a: Criterion not met

q: Check if protein stability index >= 3 (inclusive). Item: NKVAGHPLAQNERCLHMFLQDEII [SNX3]
a: Criterion not met

q: Check if protein stability index >= 3 (inclusive). Item: RFSSGGACGLGGGYGGGFSSSSSF [KRT16]
a: Criterion not met

q: Check if protein stability index >= 3 (inclusive). Item: DCGTIQENWVCLSCYQVYCGRYIN [HDAC6]
a: Criterion not met

q: Check if protein stability index >= 3 (inclusive). Item: DDSVMKATQQARKRNFISSKSKQP [C22orf31]
a: Criterion met

q: Check if protein stability index >= 3 (inclusive). Item: SETDFETEPETAPTTEPETEPEDD [GNAS]
a: Criterion met

q: Check if protein stability index >= 3 (inclusive). Item: HVQNQVDEVIDVMQENITKVIERG [VAMP4]
a: Criterion met

q: Check if protein stability index >= 3 (inclusive). Item: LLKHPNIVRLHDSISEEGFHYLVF [CAMK2D]
a: Criterion not met

q: Check if protein stability index >= 3 (inclusive). Item: ALEAAVHVQKLSQECLKQLAIKKQ [TRIM14]
a: Criterion met

q: Check if protein stability index >= 3 (inclusive). Item: ERNNIAVRKSRDKAKRRNQEMQQK [CEBPD]
a: Criterion met

// data source = the supplement of paper PMC10567573
